Target: T1, BsaWI wt (UniProt Q6UQ65 1-272)
T1 sequence: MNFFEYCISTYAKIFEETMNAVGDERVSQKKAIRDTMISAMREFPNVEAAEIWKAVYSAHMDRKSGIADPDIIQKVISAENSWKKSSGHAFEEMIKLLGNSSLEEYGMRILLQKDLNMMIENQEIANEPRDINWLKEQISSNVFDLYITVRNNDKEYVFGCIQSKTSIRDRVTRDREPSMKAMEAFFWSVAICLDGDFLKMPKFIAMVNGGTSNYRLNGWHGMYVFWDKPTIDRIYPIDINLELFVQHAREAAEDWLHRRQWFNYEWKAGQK
Test: EMSA; 5 mM Ca2+; lower mobility complex; EMSA: 40 mM Tris-acetate pH 8.3, 0.1 mg/ml BSA, 10% glycerol, 5 mM CaCl2 or 0.1 mM EDTA, 1 nM DNA, room temperature, 15 min
Conditions: protein: recombinant; chain copies: 4; label: 33P; blunt
MEASURED METRIC: Kd

The binder listed as NSP (dsDNA) DNA 1: AATGGGCTCGCACGCCTGGTATTATCGATTGTA DNA 2: TACAATCGATAATACCAGGCGTGCGAGCCCATT shows Kd equal to ~10 nM
